- testedSystem: H1047R PIK3CA enzyme (Homo sapiens, UniProt P42336, H1047R)
- Sequence (P42336 whole entry H1047R): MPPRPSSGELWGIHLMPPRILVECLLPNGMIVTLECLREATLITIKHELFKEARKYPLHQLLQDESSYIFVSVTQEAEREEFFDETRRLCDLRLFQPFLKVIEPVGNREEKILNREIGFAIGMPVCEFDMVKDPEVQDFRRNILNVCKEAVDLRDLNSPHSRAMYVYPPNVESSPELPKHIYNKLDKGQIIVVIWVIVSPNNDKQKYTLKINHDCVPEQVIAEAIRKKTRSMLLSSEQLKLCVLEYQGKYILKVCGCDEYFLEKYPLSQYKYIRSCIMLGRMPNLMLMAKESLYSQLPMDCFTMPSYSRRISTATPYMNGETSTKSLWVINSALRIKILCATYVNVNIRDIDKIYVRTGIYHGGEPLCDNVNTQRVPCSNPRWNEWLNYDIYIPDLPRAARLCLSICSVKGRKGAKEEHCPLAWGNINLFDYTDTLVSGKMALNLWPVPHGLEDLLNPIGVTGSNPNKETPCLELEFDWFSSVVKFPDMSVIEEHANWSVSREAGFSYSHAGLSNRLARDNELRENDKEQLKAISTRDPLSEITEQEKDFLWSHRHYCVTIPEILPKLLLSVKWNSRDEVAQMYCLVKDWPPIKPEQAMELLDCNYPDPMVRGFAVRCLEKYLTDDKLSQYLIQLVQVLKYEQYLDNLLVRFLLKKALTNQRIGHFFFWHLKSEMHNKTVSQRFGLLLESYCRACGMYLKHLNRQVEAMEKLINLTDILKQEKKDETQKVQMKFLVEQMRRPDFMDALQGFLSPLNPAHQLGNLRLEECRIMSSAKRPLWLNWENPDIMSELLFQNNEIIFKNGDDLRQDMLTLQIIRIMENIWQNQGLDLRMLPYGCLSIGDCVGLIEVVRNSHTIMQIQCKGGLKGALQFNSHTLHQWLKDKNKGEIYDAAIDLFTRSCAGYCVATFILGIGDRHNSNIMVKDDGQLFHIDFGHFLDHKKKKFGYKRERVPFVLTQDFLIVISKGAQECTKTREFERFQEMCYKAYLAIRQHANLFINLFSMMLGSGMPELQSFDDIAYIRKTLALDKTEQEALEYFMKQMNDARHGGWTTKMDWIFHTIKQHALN
- Sequence (P27986 whole entry partner): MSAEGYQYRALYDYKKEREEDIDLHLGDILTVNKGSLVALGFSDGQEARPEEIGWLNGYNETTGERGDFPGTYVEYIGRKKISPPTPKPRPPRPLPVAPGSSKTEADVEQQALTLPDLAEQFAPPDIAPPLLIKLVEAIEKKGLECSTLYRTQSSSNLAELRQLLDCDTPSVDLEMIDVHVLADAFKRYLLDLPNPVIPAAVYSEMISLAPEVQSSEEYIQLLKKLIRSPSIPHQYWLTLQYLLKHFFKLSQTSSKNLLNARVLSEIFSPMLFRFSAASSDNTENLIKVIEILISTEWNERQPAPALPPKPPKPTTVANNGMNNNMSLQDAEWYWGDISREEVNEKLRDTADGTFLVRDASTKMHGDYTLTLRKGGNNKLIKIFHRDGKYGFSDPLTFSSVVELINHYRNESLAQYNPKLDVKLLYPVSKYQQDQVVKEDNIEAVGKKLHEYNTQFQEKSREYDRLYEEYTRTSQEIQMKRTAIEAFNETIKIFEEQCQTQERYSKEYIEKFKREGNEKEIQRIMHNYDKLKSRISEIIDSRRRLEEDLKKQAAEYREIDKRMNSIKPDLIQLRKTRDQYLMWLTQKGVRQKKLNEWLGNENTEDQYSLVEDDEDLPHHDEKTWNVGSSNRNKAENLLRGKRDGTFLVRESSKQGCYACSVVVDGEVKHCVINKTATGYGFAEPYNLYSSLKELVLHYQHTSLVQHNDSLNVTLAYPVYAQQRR
- assayMethodText: ADP-Glo Biochemical PIK3CA Kinase Assay
pIC50: −log10 of the molar value.
parameterMeasured: pIC50

1) O=C(Nc1cc(-c2ccc3ncccc3c2)cc2c1[C@H](c1cc(F)ccc1Cl)NC2=O)c1cc(F)cc(C(F)(F)F)c1 [Compound I-894]: ≥ 7.00
2) O=C1N[C@@H](c2cc(F)ccc2Cl)c2c(NC(=O)N3C[C@H](O)c4cc(F)ccc43)cc(-n3ccccc3=O)cc21 (single isomer, unassigned) [Compound I-2350]: ≥ 7.00
3) O=C1N[C@@H](c2cc(F)ccc2Cl)c2c(NC(=O)N3C[C@@H](CO)[C@H](C(F)(F)F)C3)cccc21 (single isomer, unassigned) [Compound I-2277]: 5.00 to 6.00
4) CC1(Nc2cc(NC(=O)c3cc(F)cc(C(F)(F)F)c3)c3c(c2)C(=O)N[C@H]3c2cc(F)ccc2Cl)COC1 [Compound I-813]: ≥ 7.00
5) C[S+]([O-])c1ccccc1-c1cc(NC(=O)c2cc(F)cc(C(F)(F)F)c2)c2c(c1)C(=O)NC2c1cc(F)ccc1Cl (stereo not shown) [Compound I-1150]: ≥ 7.00
6) CN1CCC(C2NC(=O)c3cccc(NC(=O)c4cc(F)cc(C(F)(F)F)c4)c32)CC1 (stereo not shown) [Compound I-1815]: 4.00 to 5.00
7) CC(=O)N1CCC[C@@H]1COc1cc(NC(=O)c2cc(F)cc(C(F)(F)F)c2)c2c(c1)C(=O)NC2c1cc(F)ccc1Cl (single isomer, unassigned) [Compound I-1467]: ≥ 7.00
8) C[C@H]([C@@H]1C[C@@H](O)CN1C(=O)Nc1cccc2c1[C@H](c1cc(F)ccc1Cl)NC2=O)C(F)(F)F (racemic) [Compound I-2341]: 6.30 to 7.00
9) O=C1NC(c2cc(F)ccc2Cl)c2c(NC(=O)C34CC(CO)(C3)C4)cccc21 (stereo not shown) [Compound I-2219]: 4.00 to 5.00
10) O=C(Nc1cccc2c1C(C1CCCCN1)NC2=O)c1cc(F)cc(C(F)(F)F)c1 (stereo not shown) [Compound I-1675]: 5.00 to 6.00
11) Nc1cc(-c2cc(NC(=O)c3cc(F)cc(C(F)(F)F)c3)c3c(c2)C(=O)NC3c2cc(F)ccc2Cl)ncn1 (stereo not shown) [Compound I-1089]: ≥ 7.00
12) O=C(Nc1cc(N2CC(C(F)F)C2)nc2c1C(c1cc(F)ccc1Cl)NC2=O)c1cc(F)cc(C(F)(F)F)c1 (stereo not shown) [Compound I-487]: ≥ 7.00
13) NCc1cc(NC(=O)c2cc(F)cc(C(F)(F)F)c2)c2c(c1)C(=O)NC2c1cc(F)ccc1Cl (stereo not shown) [Compound I-126]: ≥ 7.00
14) CC(O)c1cc(NC(=O)c2cc(F)cc(C(F)(F)F)c2)c2c(c1)C(=O)NC2c1cc(F)ccc1Cl (racemic) [Compound I-664]: ≥ 7.00
15) CC(C)(O)c1cc(NC(=O)c2cc(F)cc(C(F)(F)F)c2)c2c(c1)C(=O)N[C@@H]2c1cc(F)ccc1Cl [Compound I-190]: 5.00 to 6.00
16) N#Cc1cnn(-c2cc(NC(=O)N3C[C@H](O)c4cc(F)ccc43)c3c(c2)C(=O)N[C@H]3c2cc(F)ccc2Cl)c1 [Compound I-2403]: ≥ 7.00
17) O=C(Nc1cc(-c2cn3ncnc3cn2)cc2c1[C@@H](c1cc(F)ccc1C(F)F)NC2=O)c1cc(F)cc(C(F)(F)F)c1 (single isomer, unassigned) [Compound I-2233]: 5.00 to 6.00
18) O=C(Nc1cccc2c1[C@H]([C@@H]1COCCN1)NC2=O)c1cc(F)cc(C(F)(F)F)c1 (racemic) [Compound I-1901]: 4.00 to 5.00
19) NS(=O)(=O)Cc1cc(NC(=O)c2cc(F)cc(C(F)(F)F)c2)c2c(c1)C(=O)N[C@H]2c1cc(F)ccc1Cl [Compound I-1480]: ≥ 7.00
20) O=C(Nc1cc(-c2cnc(-n3cccn3)nc2)cc2c1C(c1cc(F)ccc1Cl)NC2=O)c1cc(F)cc(C(F)(F)F)c1 (stereo not shown) [Compound I-1483]: ≥ 7.00
21) O=C(Nc1cc(-c2ccc3ncccc3c2)cc2c1C(c1cc(F)ccc1Cl)NC2=O)c1cc(F)cc(C(F)(F)F)c1 (stereo not shown) [Compound I-737]: ≥ 7.00
22) O=C(Nc1cc(C2CCOC2)cc2c1C(c1cc(F)ccc1Cl)NC2=O)c1cc(F)cc(C(F)(F)F)c1 (racemic) [Compound I-778]: ≥ 7.00
23) O=CNc1nc(-c2cc(NC(=O)c3cc(F)cc(C(F)(F)F)c3)c3c(c2)C(=O)NC3c2cc(F)ccc2Cl)ccc1O (stereo not shown) [Compound I-1552]: ≥ 7.00
24) CC(O)c1cc(NC(=O)c2cc(F)cc(C(F)(F)F)c2)c2c(n1)C(=O)NC2c1cc(F)ccc1Cl (stereo not shown) [Compound I-280]: 6.30 to 7.00
25) O=C1CCC(c2cc(NC(=O)c3cc(F)cc(C(F)(F)F)c3)c3c(c2)C(=O)NC3c2cc(F)ccc2Cl)N1 (stereo not shown) [Compound I-861]: ≥ 7.00

---

- testedSystem: H1047R PIK3CA enzyme (Homo sapiens, UniProt P42336, H1047R)
- assayMethodText: ADP-Glo Biochemical PIK3CA Kinase Assay
pIC50: −log10 of the molar value.
parameterMeasured: pIC50

1) CCn1cc(-c2cc(NC(=O)c3cc(F)cc(C(F)(F)F)c3)c3c(c2)C(=O)N[C@H]3c2cc(F)ccc2Cl)ccc1=O: ≥ 7.00
2) N#CCC(O)c1cc(NC(=O)c2cc(F)cc(C(F)(F)F)c2)c2c(c1)C(=O)NC2c1cc(F)ccc1Cl (racemic): ≥ 7.00
3) O=C1NC(c2cc(F)ccc2Cl)c2c(NC(=O)N3CC(CO)C(C(F)(F)F)C3)cccc21 (centres unmarked): 4.00 to 5.00
4) O=C(Nc1cc(Br)cc2c1C(c1cc(F)ccc1Cl)NC2=O)c1ccc(C(F)(F)F)o1 (centres unmarked): 5.00 to 6.00
5) Cc1ccccc1C1NC(=O)c2cccc(NC(=O)c3cc(C(F)(F)F)ccc3F)c21 (centres unmarked): 5.00 to 6.00
6) Cc1ccccc1C1NC(=O)c2cccc(NC(=O)N3CCCCC3)c21 (centres unmarked): 4.00 to 5.00
7) CC(C)(O)c1cc(F)cc(C(=O)Nc2cccc3c2C(c2cc(F)ccc2Cl)NC3=O)c1 (centres unmarked): 4.00 to 5.00
8) N#Cc1cc(-c2cc(NC(=O)c3cc(F)cc(C(F)(F)F)c3)c3c(c2)C(=O)N[C@H]3c2cc(F)ccc2Cl)cn2ncnc12: ≥ 7.00
9) Cc1ccccc1C1NC(=O)c2cccc(NC(=O)c3cc(Cl)n4ccccc34)c21 (centres unmarked): 6.30 to 7.00
10) CN1CCN(C(=O)Nc2cc(Br)cc3c2[C@@H](c2cc(F)ccc2Cl)NC3=O)CC1(C)C (single isomer, unassigned): 4.00 to 5.00
11) O=C1NC(c2cc(F)ccc2Cl)c2c(NC(=O)c3cc(F)cc4cn[nH]c34)cccc21 (centres unmarked) [Compound I-594]: 6.00 to 6.30
12) O=C(Nc1cc(-c2nc3ncccc3[nH]2)cc2c1C(c1cc(F)ccc1Cl)NC2=O)c1cc(F)cc(C(F)(F)F)c1 (centres unmarked): ≥ 7.00
13) O=C(Nc1cc(-c2ccc3nc(Cl)nn3c2)cc2c1C(c1cc(F)ccc1Cl)NC2=O)c1cc(F)cc(C(F)(F)F)c1 (centres unmarked) [Compound I-1575]: ≥ 7.00
14) O=C1NC(c2cc(F)ccc2Cl)c2c(NC(=O)C3CNCCO3)cc(-c3ccc4ncnn4c3)cc21 (centres unmarked): 4.00 to 5.00

---

- assayMethodText: cells
- conditionDescription: Homo sapiens, MCF-10A, read-out: MCF10A IC50
parameterMeasured: IC50

1) COCc1cc(NC(=O)c2cc(F)cc(C(F)(F)F)c2)c2c(c1)C(=O)N[C@H]2c1cc(F)ccc1Cl: < 1000 nM
2) O=C1N[C@@H](c2cc(F)ccc2Cl)c2c(NC(=O)N3C[C@](O)(C(F)(F)F)c4cc(F)ccc43)ccc(-n3cccn3)c21 (single isomer, unassigned): < 1000 nM
3) N#CC1(COc2cc(NC(=O)N3CC(O)c4cc(F)ccc43)c3c(c2)C(=O)NC3c2cc(F)ccc2Cl)CC1 (mixture of isomers): 5000 to 10000 nM
4) O=C(Nc1cc(-c2cnn(C3CC3)c2)cc2c1C(c1cc(F)ccc1Cl)NC2=O)c1cc(F)cc(C(F)(F)F)c1 (stereo not shown): < 1000 nM
5) CC(C)(CN)n1cc(-c2cc(NC(=O)c3cc(F)cc(C(F)(F)F)c3)c3c(c2)C(=O)NC3c2cc(F)ccc2Cl)cn1 (stereo not shown): 1000 to 5000 nM
6) Cc1cn(-c2cc(NC(=O)N3C[C@](O)(C(F)(F)F)c4cc(F)ccc43)c3c(c2)C(=O)N[C@@H]3c2cc(F)ccc2Cl)cn1 (single isomer, unassigned): < 1000 nM
7) O=C(Nc1cc(-c2cncs2)cc2c1C(c1cc(F)ccc1Cl)NC2=O)c1cc(F)cc(C(F)(F)F)c1 (stereo not shown): < 1000 nM
8) O=C1N[C@@H](c2cc(F)ccc2Cl)c2c(NC(=O)N3CCc4ccccc43)cc(-c3ccc4ncnn4c3)cc21 (stereo in doubt): < 1000 nM
9) Cc1ccccc1[C@H]1NC(=O)c2cccc(NC(=O)c3csc4c(F)cccc34)c21: 1000 to 5000 nM
10) O=C(Nc1cc(-c2ccc(N3CCOCC3)nc2)cc2c1C(c1cc(F)ccc1Cl)NC2=O)c1cc(F)cc(C(F)(F)F)c1 (stereo not shown): < 1000 nM
11) Nc1cnc(-c2cc(NC(=O)c3cc(F)cc(C(F)(F)F)c3)c3c(c2)C(=O)NC3c2cc(F)ccc2Cl)cn1 (stereo not shown): < 1000 nM
12) Cn1cc2cc(-c3cc(NC(=O)c4cc(F)cc(C(F)(F)F)c4)c4c(c3)C(=O)NC4c3cc(F)ccc3Cl)ccc2n1 (stereo not shown): < 1000 nM
13) O=C1Cc2ccc(-c3cc(NC(=O)c4cc(F)cc(C(F)(F)F)c4)c4c(c3)C(=O)NC4c3cc(F)ccc3Cl)cc2N1 (stereo not shown): < 1000 nM
14) O=C(Nc1cc(-c2cscn2)cc2c1C(c1cc(F)ccc1Cl)NC2=O)c1cc(F)cc(C(F)(F)F)c1 (stereo not shown): < 1000 nM
15) O=C(Nc1cc(-c2ccc3c(c2)C(=O)NCCO3)cc2c1C(c1cc(F)ccc1Cl)NC2=O)c1cc(F)cc(C(F)(F)F)c1 (stereo not shown): < 1000 nM
16) CS(=N)(=O)Cc1cc(NC(=O)c2cc(F)cc(C(F)(F)F)c2)c2c(c1)C(=O)NC2c1cc(F)ccc1Cl (stereo not shown): < 1000 nM
17) O=C1NC(c2cc(F)ccc2Cl)c2c(NC(=O)N3CC(O)(C(F)F)c4cc(F)ccc43)cccc21 (mixture of isomers): 1000 to 5000 nM
18) COCCc1cc(NC(=O)c2cc(F)cc(C(F)(F)F)c2)c2c(c1)C(=O)NC2c1cc(F)ccc1Cl (stereo not shown): < 1000 nM
19) O=C1COCc2cc(-c3cc(NC(=O)c4cc(F)cc(C(F)(F)F)c4)c4c(c3)C(=O)NC4c3cc(F)ccc3Cl)ccc2N1 (stereo not shown): < 1000 nM
20) N#Cc1cc(NC(=O)N2C[C@@](O)(C(F)(F)F)c3cc(F)ccc32)c2c(c1)C(=O)N[C@@H]2c1cc(F)ccc1Cl (single isomer, unassigned): < 1000 nM
21) CC(C)(O)Cn1cc(-c2cc(NC(=O)c3cc(F)cc(C(F)(F)F)c3)c3c(c2)C(=O)NC3c2cc(F)ccc2Cl)cn1 (stereo not shown): < 1000 nM
22) O=C(Nc1cc(NC2=NCCO2)cc2c1C(c1cc(F)ccc1Cl)NC2=O)c1cc(F)cc(C(F)(F)F)c1 (stereo not shown): 1000 to 5000 nM
23) O=C1N[C@@H](c2cc(F)ccc2Cl)c2c(NC(=O)N3C[C@@](O)(C(F)(F)F)c4cc(F)ccc43)cc(Cl)cc21 (single isomer, unassigned): < 1000 nM
24) O=C1N[C@@H](c2cc(F)ccc2Cl)c2c(NC(=O)N3C[C@@](O)(C(F)(F)F)c4ccccc43)cc(Cl)cc21 (single isomer, unassigned): < 1000 nM
25) O=C(Nc1cc(-c2ccc3ncnn3c2)cc2c1[C@H](c1cc(F)ccc1C(F)F)NC2=O)c1cc(F)cc(C(F)(F)F)c1 (stereo in doubt): < 1000 nM

These measurements were taken from patent US12581252B2.
